study_system: HLA-A*69:01
measurement_notes: IEDB peptide-MHC binding, purified MHC/competitive/fluorescence; filed as Kd, often an IC50 or EC50 that approximates it; bounds were set here for any values at or beyond the usual limits of such assays
settings: source organism: Vaccinia virus Copenhagen
endpoint_name: pKd
// field semantics: pKd = negative decimal log of concentration (mol/L)

Query (sequence): `YPPPRYITV` ; field requested: pKd 7.17

====

study_system: HLA-A*68:02
measurement_notes: IEDB peptide-MHC binding, purified MHC/competitive/fluorescence; filed as Kd, often an IC50 or EC50 that approximates it; bounds were set here for any values at or beyond the usual limits of such assays
settings: source organism: Influenza A virus H3N2
endpoint_name: pKd
Expect pKd as a plain number equal to -log10 of the molar concentration.

What measured pKd is associated with `ELVRKTRFL` on HLA-A*68:02? 5.85

====

study_system: HLA-A*69:01
measurement_notes: IEDB peptide-MHC binding, purified MHC/direct/fluorescence; filed as Kd, often an IC50 or EC50 that approximates it; bounds were set here for any values at or beyond the usual limits of such assays
settings: source organism: Camelpox virus M-96
endpoint_name: Kd (nM)
Field: numeric (nM). Do not append units.

For the sequence `YFDDVTAFL` , what Kd is on record? 428

====

study_system: HLA-A*31:01
measurement_notes: IEDB peptide-MHC binding, purified MHC/competitive/fluorescence; filed as Kd, often an IC50 or EC50 that approximates it; bounds were set here for any values at or beyond the usual limits of such assays
settings: source organism: dengue virus type 4
endpoint_name: Kd (nM)
The reply should be a number in nM, with the unit left off.

Given `VVTLIPLCR` , state its recorded Kd. 30.1

====

study_system: HLA-A*30:02
measurement_notes: IEDB peptide-MHC binding, purified MHC/competitive/radioactivity; filed as Kd, often an IC50 or EC50 that approximates it; bounds were set here for any values at or beyond the usual limits of such assays
settings: source organism: SARS coronavirus Tor2
pKd: −log10 of the molar value.
Parameter threshold = 6. Response is Yes when pKd meets or exceeds it, else No.

Worked examples follow.
[[record]]
entry_sequence = "EHSWNADLY"
class_name = "Yes"

[[record]]
entry_sequence = "HSYGIDLKSY"
class_name = "Yes"

[[record]]
entry_sequence = "GFELTSMKY"
class_name = "No"

[[record]]
entry_sequence = "IFFASFYYIW"
class_name = "No"

[[record]]
entry_sequence = "FYFTNDVSF"
class_name = "No"


Does the reported pKd for `YYSLLMPIL` fall at or above the 6 mark? No

Dear colleague, could you confirm whether `DSKEGFFTY` has pKd at or above 6? Yes

Hello, I need to know if `DYAEISFML` has measured pKd not below 6. Thanks! Yes

Could you please find out whether `EWSVATFYLF` has pKd that meets 6 or exceeds it? No

====

study_system: HLA-A*02:12
measurement_notes: IEDB peptide-MHC binding, purified MHC/direct/fluorescence; filed as Kd, often an IC50 or EC50 that approximates it; bounds were set here for any values at or beyond the usual limits of such assays
settings: source organism: Rickettsia sibirica 246
pKd: −log10 of the molar value.
endpoint_name: pKd

What does the data say about its pKd? Entry: `APVESMALF` ≤ 4.70
